Tested on: A549
Assay: Cytotoxicity against human A549 cells
Format: functional, cell-based
Listed next: entries and their corresponding IC50.

compound: CC(C)(C)[Si](C)(C)OCc1cc(=O)c(O)c(C(C[N+](=O)[O-])c2ccc(Cl)cc2)o1 (stereo not drawn)
IC50: 18 µM

compound: CC(C)(C)[Si](C)(C)OCc1cc(=O)c(O)c(C(C[N+](=O)[O-])c2cccc(Cl)c2)o1 (stereo not drawn)
IC50: 9 µM

compound: CC(C)(C)[Si](C)(C)OCc1cc(=O)c(O)c(C(C[N+](=O)[O-])c2ccc(Br)cc2)o1 (stereo not drawn)
IC50: 8 µM

====

Listed next: entries and their corresponding MIC.
System: Candida albicans
Assay: Antifungal activity against Candida albicans ATCC 90028
Type: functional
readout name: MIC (mg/L)

given smiles: Cc1cc(=O)c(O)c(CN2CCN(c3ccc([N+](=O)[O-])cc3)CC2)o1
result number: 64

given smiles: Cc1cc(=O)c(O)c(CN2CCN(c3ccccc3F)CC2)o1
result number: 64

given smiles: CC(=O)c1ccc(N2CCN(Cc3oc(C)cc(=O)c3O)CC2)cc1
result number: 64

given smiles: Cc1cc(=O)c(O)c(CN2CCN(c3ccccc3Cl)CC2)o1
result number: 64

given smiles: Cc1cc(=O)c(O)c(CN2CCN(c3ccccc3)CC2)o1
result number: 64

given smiles: Cc1cc(=O)c(O)c(CN2CCN(c3ccccn3)CC2)o1
result number: 64

given smiles: COc1ccccc1N1CCN(Cc2oc(C)cc(=O)c2O)CC1
result number: 64

given smiles: Cc1cc(=O)c(O)c(CN2CCN(Cc3ccccc3)CC2)o1
result number: 64

given smiles: Cc1cc(=O)c(O)c(CN2CCN(c3ccc(F)cc3)CC2)o1
result number: 64

given smiles: Cc1cc(=O)c(O)c(CN2CCN(Cc3ccc4c(c3)OCO4)CC2)o1
result number: 64

given smiles: Cc1cc(=O)c(O)c(CN2CCN(c3ccc(Cl)cc3)CC2)o1
result number: 64

given smiles: COc1cccc(N2CCN(Cc3oc(C)cc(=O)c3O)CC2)c1
result number: 64

given smiles: Cc1cc(=O)c(O)c(CN2CCN(c3cccc(C(F)(F)F)c3)CC2)o1
result number: 64

====

Test: Inhibition of HIV-1 integrase
Design: species or system Human immunodeficiency virus 1
pEC50: −log10 of the molar value.

given smiles: Cc1cc(=O)c(O)c(C(=O)NCc2ccc(F)cc2)o1
pEC50: 6.15

given smiles: Cc1cc(=O)c(O)c(C(=O)NCc2ccc(Cl)cc2)o1
pEC50: 5.71

====

Target: DNA gyrase (Escherichia coli, UniProt P0AES4+P0AES6)
Test: Inhibition of Escherichia coli DNA gyrase
Label Met when IC50 is strictly below 0.6 µM; otherwise label Not met.

given smiles: O=C(N[C@H]1CCc2nc(NCc3cc(=O)c(O)co3)sc2C1)c1cc(Br)c(Br)[nH]1
class: Met

given smiles: Cc1[nH]c(C(=O)N[C@H]2CCc3nc(NC(=O)[C@@H](NC(=O)c4cc(=O)c(O)c[nH]4)C(C)C)sc3C2)c(Cl)c1Cl
class: Not met

given smiles: Cc1[nH]c(C(=O)N[C@H]2CCc3nc(NC(=O)CCNC(=O)c4cc(=O)c(O)c[nH]4)sc3C2)c(Cl)c1Cl
class: Met

given smiles: Cc1[nH]c(C(=O)N[C@H]2CCc3nc(NC(=O)[C@H](C)NC(=O)c4cc(=O)c(O)c[nH]4)sc3C2)c(Cl)c1Cl
class: Met

given smiles: Cc1[nH]c(C(=O)N[C@H]2CCc3nc(NCc4cc(=O)c(O)co4)sc3C2)c(Cl)c1Cl
class: Not met

The reported measurements were obtained from ChEMBL document CHEMBL5233273.
